# System: Bacillus subtilis
# experimental-details: cleaved RNA product abundance (RNA/gDNA barcode ratio) relative to median wild-type variant (ratio to wild type); higher = more accumulation of the downstream cleavage product
# condition-notes: experiment (reporter, strain, medium): exp 4a: truncated aprE reporter, strain BJT201 with 2% xylose (RNase J1 expressed); cleavage site: cggR-gapA (positions -7 to +36 mutated)
Items are presented alongside their recorded cleaved RNA product abundance.
Just the number, please.

Field: example entries. Status: answers known.
seq-string: ACAGACGAAGGAGCCGCAAAAAAGTTATTAAGGTATAAATAATCCCTCAATATAAATATCTCTCACTTATTTAAA
cleaved RNA product abundance: 0.0805
--
seq-string: ACAGACGAAGGAGCCGCAAAGAAGTTATTAAGGGTTGAATAATTCCTCAATATAAATATCTCTCACTTATTTAAA
cleaved RNA product abundance: 0.1

[Q] Give the reported cleaved RNA product abundance for ACAGACGAAGGAGCCGCAAAGAAGTTATTAAGGGATGAATATTCCTTCAATATAAATATCTCTCACTTATTTAAA (system: Bacillus subtilis).
[A] 0.546

[Q] Let us now turn to ACAGACGAAGGAGCCGCAAAGAAGTTATTAAGGGACAAATAATCCCTCAATATAAATATCTCTCACTTATTTAAA
[A] 0.84

[Q] Let us now turn to ACAGACGAAGGAGCCGCAAAGACTTTATTAAGGGATGAATAATCCCTCAATATAAATATCTCTCACTTATTTAAA
[A] 0.8

[Q] Let us now turn to ACAGACGAAGGAGCCGCAAAGAAGTTATTAAGGCATGAATAATCCCTCAATTTAAATATCTCTCACTTATTTAAA
[A] 0.0584

[Q] Let us now turn to ACAGACGAAGGAGCCGCACACAAGTTATTAAGGGATGAATAATCCCTCAATATAAATATCTCTCACTTATTTAAA
[A] 0.483

[Q] Let us now turn to ACAGACGAAGGAGCCGCAAAGTAGTTATTAAGGGATGGATAATCCCTCAATATAAATATCTCTCACTTATTTAAA
[A] 0.537

[Q] Let us now turn to ACAGACGAAGGAGCCGCGAAGAAGTTATTAAGGTATGAATAATCCCTCAATATAAATATCTCTCACTTATTTAAA
[A] 0.143

[Q] Let us now turn to ACAGACGAAGGAGCCGCAAAGAAGTTATTAAGGGATGAATAATCCCTCAATATAAATATCACTCACTTATTTAAA
[A] 0.917

---

# Tested on: Bacillus subtilis
# experimental-details: cleaved RNA product abundance (RNA/gDNA barcode ratio) relative to median wild-type variant (ratio to wild type); higher = more accumulation of the downstream cleavage product
# condition-notes: experiment (reporter, strain, medium): exp 8a: truncated aprE reporter, strain BJT201 with 2% xylose (RNase J1 expressed); cleavage site: glnRA (positions -5 to +31 mutated)
Tag: TRUE if measured cleaved RNA product abundance is not below 0.3, FALSE if it is.

# count of solved cases: 6
seq-string: CGACATGTCCCGCTTCTTTCATTAATCCGTTAGCAAGCGTTTTGCTATATACATTTACCTTTTAAGAGGAGGAAT
group-label: TRUE

seq-string: CGACATGTCCCGCTTCTTTCATTAACCCGTTAGCAAGTGTTTTGCTATATACATTTACCTTTTAAGAGGAGGAAT
group-label: TRUE

seq-string: CGACATGTCCCGCTTCTTTCATTAATCAGTTACCAACTGTTTTGCTATATACATTTACCTTTTAAGAGGAGGAAT
group-label: FALSE

seq-string: CGACATGTCCCGCTTCTTTCATTACTCCGTTAGCAACTGTTTTGCTATATACTTTTACCTTTTAAGAGGAGGAAT
group-label: TRUE

seq-string: CGACATGTCCCGCTTCTTTCATTAATCCGTTAGCAACTGTTTTGTGATATACATTTACCTTTTAAGAGGAGGAAT
group-label: TRUE

seq-string: CGACATGTCCCGCTTCTTTCATTAATCCGTTAGAAACTGTTTTGATATATACATTTACCTTTTAAGAGGAGGAAT
group-label: FALSE

[Q] Given the entry CGACATGTCCCGCTTCTTTCATTAATCCGTTAGCAACGGTTTTGTTATATACATTTACCTTTTAAGAGGAGGAAT , answer whether its cleaved RNA product abundance meets or surpasses 0.3.
[A] TRUE

All figures here come from the supplement of paper PMC11780869.
